B1: POU domain, class 4, transcription factor 2, residues 256 to 327; numbered along this chain, Q12837 (parent)
chain: RDLEAFAERFKQRRIKLGVTQADVGSALANLKIPGVGSLSQSTICRFESLTLSHNNMIALKPILQAWLEEAE

# Variants of: B1
# procedureDetails: abundance fitness (aPCA) (normalised: wild type 0, dead -1); higher = more abundant; growth selection in yeast, the domain comes from the species named
# experimentalSetup: Homo sapiens
Threshold rule: abundance fitness greater than or equal to -0.2 is criterion met; below that, criterion not met.

recordSequence	groupLabel
RDLEAFAERFKQRLIKLGVTQADVGSALANLKIPGVGSLSQSTICRFESLTLSHNNMIALKPILQAWLEEAE [R14L]	criterion not met
RDLEAFAERFKQRRIKLGVTQADVGSALANLKIPGVGSLSQSTICRFESLTLSHNNMIALKPILQAWLEENE [A71N]	criterion not met
RDLEAFAERFKQRRIKLGVTQADVGSALANLKIPGVGSLSQSTILRFESLTLSHNNMIALKPILQAWLEEAE [C45L]	criterion met
RDLEAFAERFKQRRIKLGVTQADVGSALANLKIPGVGSLSQSTICRFESLTLSHNNMIALKPILQAWLEEVE [A71V]	criterion not met
RDLEAFAERFKQRRIKLGVTQADVGSALANLKIPGVGSLSQSTSCRFESLTLSHNNMIALKPILQAWLEEAE [I44S]	criterion not met
RDLEAFAERFKQRRIKLGVTQADVGSALANLKMPGVGSLSQSTICRFESLTLSHNNMIALKPILQAWLEEAE [I33M]	criterion met
RDLEAFAERFKQRRIKLGVTQADVGSALANLKIPGVGSLSQSTICRFESLTLSHNNMIWLKPILQAWLEEAE [A59W]	criterion met
RDLEAFAERFKQRRIKLGVTQADVGSALANLKIPGVGSLSQSTICRFVSLTLSHNNMIALKPILQAWLEEAE [E48V]	criterion not met
RDLEAFAERFKQRRIKLGVCQADVGSALANLKIPGVGSLSQSTICRFESLTLSHNNMIALKPILQAWLEEAE [T20C]	criterion not met
RDLEAFAERFKQRRIKLGVTQADVGSALANLKIPGVGSLSQSTICRFESLTLSHNHMIALKPILQAWLEEAE [N56H]	criterion met
RDLEAFAERFKQRRIKLGVTQADVGSALANLKIPGVGNLSQSTICRFESLTLSHNNMIALKPILQAWLEEAE [S38N]	criterion met
RDLEAFAERFKQRRIKLGVTQADVGSALANTKIPGVGSLSQSTICRFESLTLSHNNMIALKPILQAWLEEAE [L31T]	criterion met
RDLEAFAERFKQRRIKLGVTQADVGSALANLKIPGVGSLSQSTICRFESLTLSHNNMIALKPILSAWLEEAE [Q65S]	criterion met
RDLEAFAERFKQRRIKLGVTQADVGIALANLKIPGVGSLSQSTICRFESLTLSHNNMIALKPILQAWLEEAE [S26I]	criterion not met
RDLEAFAERFKQRRIKLGVTQADVGSALANLKIPGVGSLSQSTICRFESLTLSHNNMIALKPIKQAWLEEAE [L64K]	criterion not met
RDLEAFAERFKQRRIKLGVTQADVGSALANLKIPGVGSLSQSTICRFESATLSHNNMIALKPILQAWLEEAE [L50A]	criterion met
RDLEAFAERFKQRRIKLGVTQADVGSALANLKIPGVGSLSQSTICRFESLTLSHNNMIALMPILQAWLEEAE [K61M]	criterion met
RDLEAFAERFKQRRIKLGVTQADVGSALANLKIPGVGSLSQSTICRFESLTLSHNNMIALKPILQAWLEEQE [A71Q]	criterion met
RDLEAFAERFKQRRIKLGVTQADVGSALANLKIPGVGSLSQSTICRFESLTLSHNNMIALKPISQAWLEEAE [L64S]	criterion not met
RDLEAFAERFKQRRIKLGVTQADVGSALACLKIPGVGSLSQSTICRFESLTLSHNNMIALKPILQAWLEEAE [N30C]	criterion met
RDLEAFAERFKQRRIKLGVTQADVGSALANLKIPGVGSLSQSTICRFECLTLSHNNMIALKPILQAWLEEAE [S49C]	criterion not met
RDLEAFAERFKQRRIKLGVTQAYVGSALANLKIPGVGSLSQSTICRFESLTLSHNNMIALKPILQAWLEEAE [D23Y]	criterion not met
